Settings: buffer; pH 7.4; 200.0 µM
Decide using solubility kinetic: a value greater than or equal to 20 µg/mL is y, a smaller one is n.

> print(dat)
                                    compound  classification
 1  COCCN(C(=S)Nc1c(C)cccc1C)C(C)c1cccs1 (centres undefined)               n
 2  O=C(O)CC(c1ccc(F)cc1F)N1Cc2ccccc2C1=O (centres undefined)               y
 3  O=C1NC2=C(C(=O)OC2)C(c2ccc(OC(F)(F)F)cc2)N1 (centres undefined)               y
 4     C/C(=N\OCC(=O)Nc1ccccc1C(=O)O)c1cccs1               y
 5       Cc1cc(C)nc(N2CCC(C(=O)NC3CC3)CC2)n1               y
 6   CC(=O)NCCC(=O)Nc1nc(-c2ccc3ccccc3c2)cs1               n
 7                  CSc1ncccc1C(=O)Nc1ccncc1               y
 8     COc1ccc(CCNc2ccc([N+](=O)[O-])cn2)cc1               n
 9         Oc1c(C=Nc2cccc3nsnc23)ccc2ccccc12               n
10  CCOC(=O)CN1C(=O)S/C(=C\c2ccc(-c3cccc(C(=O)O)c3C)o2)C1=O               y
11        CC(C)(C)c1ccccc1OCC(=O)NCCCn1ccnc1               y
12  COc1cc(C(=O)NC(=S)N2CCN(C)CC2)cc(OC)c1OC               y
13  CC(c1ccccc1)N1CC(C(=O)O)CC1=O (centres undefined)               y
14  Cc1oc(-c2ccoc2)nc1CN(CC1CCC(=O)N1)C(C)C (centres undefined)               y
15  Cc1ccc(NS(=O)(=O)c2ccc3c(c2)N(C)CCO3)cc1               y
16       CCN1CCN(c2ccc(NC(=O)c3ccco3)cc2)CC1               y
17  COc1ccc(C2=NOC(C(=O)Nc3cccc(O)c3)C2)cc1 (centres undefined)               y
18                  CN1CCN(c2ccc(Cl)cc2N)CC1               y
19  C/C(CC(=O)Nc1cccc(F)c1)=N\NC(=O)c1ccncc1               y
20  CC(=O)Nc1cccc(C(=O)NC(C)c2ccc(-n3ccnc3)cc2)c1 (centres undefined)               y
21  CCOC(=O)C1=C(CC)Nc2ccccc2N/C1=N\S(=O)(=O)c1cccc(C(C)=O)c1               y
22     FC(F)(F)c1cccc(CN2CCN(c3ncccn3)CC2)c1               n
23  Cc1ccc2[nH]c3c(c2c1)CCCC3NC(=O)CCl (centres undefined)               y
24  C=CCN1C(=O)NC(=O)/C(=C/c2ccc(OCC(=O)Nc3ccc(C)cc3)cc2)C1=O               y

---

Conditions: buffer; pH 7.4; 200.0 µM
solubility kinetic: recorded values
Readout Label: solubility kinetic (µg/mL)

> print(dat)
                                    compound  qualifier  assay.value
 1  CC(Cc1ccccc1)NC(=O)Cc1ccc([N+](=O)[O-])cc1 (centres undefined)          =         22.6
 2       CCCC(=O)N1CCN(c2nc3ccc(Cl)cc3s2)CC1          =         46.3
 3  O=C(O)C1C2C=CC(O2)C1C(=O)NCCc1cccc(Cl)c1 (centres undefined)          >         48.3
 4  COc1ccccc1NS(=O)(=O)c1cc(NC(=O)c2ccccc2[N+](=O)[O-])ccc1N1CCOCC1          =          4.4
 5       CC(=O)Nc1cccc(CCc2nc3ccccc3[nH]2)c1          >         41.9
 6  CS(=O)(=O)c1ccc2nc(NC(=O)c3ccc(N4C(=O)CCC4=O)cc3)sc2c1          =          0.3
 7  Cc1onc(-c2c(Cl)cccc2Cl)c1C(=O)N=C(N)N1CCCC1          =           12
 8  CC1=C(C(=O)N(C)C)C(c2ccc(C)s2)NC(=S)N1 (centres undefined)          =         31.4
 9              O=C1c2ccsc2SCCN1Cc1ccc(F)cc1          =         40.5
10   CCN(C(=O)c1ccco1)c1nc(-c2ccc(OC)cc2)cs1          <          0.4
11  CC1CC(C)CN(c2ccc(NS(=O)(=O)c3ccccc3)cc2C(=O)O)C1 (centres undefined)          =         57.2
12       NS(=O)(=O)c1cc2c(cc1Cl)NC=NS2(=O)=O          >         44.4
13  O=C(NC1CCN(S(=O)(=O)c2ccccc2)CC1)c1ccccc1          <          0.4
14                   Cc1cccc(C)c1NC1=NCCCCC1          >         32.4
15            CN1CCN(Cc2nnc(-c3ccccc3)o2)CC1          >         38.7
16  CN(C1CCS(=O)(=O)C1)S(=O)(=O)c1ccccc1 (centres undefined)          >         43.4
17    CCOC(=O)CNC(=O)CNC(=O)c1ccc(OC(C)C)cc1          >         48.4
18     Cc1ccc(C(=O)Nc2sc3c(c2C(=O)O)CCCC3)o1          >         45.8
19  Cc1[nH]c2ccccc2c1C(=O)C(=O)N1CC2CC(C1)c1cccc(=O)n1C2 (centres undefined)          >         56.3
20        CCCOc1ccc(/C=C2/C(=O)ON=C2C)cc1OCC          =         36.8
21   O=[N+]([O-])c1cccc(N=Cc2sc3ccccc3c2O)c1          <          0.3
22  CC(C)(C)C(=O)OCc1nc(-c2ccc(C(F)(F)F)cc2)cs1          <          0.7
23  CCn1c(C(=O)NC2CCC(C)CC2)cc2sccc21 (centres undefined)          =          0.7
24  Cn1c(=O)c(C(=O)c2ccc(S(C)(=O)=O)c(Cl)c2Cl)c(O)c2ccccc21          >         63.9
25      Cc1cc(CNC(=O)Cc2ccc(F)cc2)c2ccccc2n1          >         46.3
26         Cc1ccc(C)c(NS(=O)(=O)c2ccccc2C)c1          =         38.8
27                   O=C(O)Cc1c[nH]c2ccccc12          >         26.3
28  COc1cc(NC(=S)NC2CC(C)(C)NC(C)(C)C2)cc(OC)c1          >         52.7
29       Cc1ccc(C(=O)NCC(=O)Nc2ccc(Cl)cc2)s1          =          4.6
30  CNc1nc2c(c(=O)[nH]c(=O)n2C)n1CCCc1ccccc1          >           47
31  O=C(NC1CCCCC1)C1COc2ccccc2O1 (centres undefined)          >         39.2
32      Cc1ccc(Nc2cc(=O)[nH]c(=O)[nH]2)cc1Cl          =            2
33    COc1cccc(CNCc2ccccc2OC)c1.O=C(O)C(=O)O          =         28.9
34      NC(=O)NC(=O)COC(=O)/C=C/c1cccc(Br)c1          =          0.4
35       COc1ccc(C(=O)NCCCNC(=O)c2cnccn2)cc1          =         42.8
36  COc1ccc(-c2ncnc(C(F)(F)F)c2-c2csc(C)n2)c(O)c1          =         53.1
37  O=[N+]([O-])c1ccc(P(=O)(Cc2ccccc2)c2ccccc2O)cc1 (centres undefined)          =           17
38   CN1C(=O)c2cccc3c(S(=O)(=O)N(C)C)ccc1c23          =           14
39  Cc1ccc(C(=O)c2coc3ccc(O)c(CN(C)C)c23)cc1.Cl          =           48
40  CN(CC(=O)Nc1ccc(Cl)c(C(F)(F)F)c1)C(=O)c1cnccn1          =         13.7
41      O=C(COC(=O)c1cc2ccccc2cc1O)NC1CCCCC1          =          5.9
42             O=C(Nc1cccc2ccccc12)NC1CCCCC1          <          0.3
43               CC(C)c1cc(C(=O)O)c2ccccc2n1          =         28.2
44                    Cc1nsc(Nc2ccccc2)c1C#N          =          7.7
45  O=C(COc1cc(F)ccc1[N+](=O)[O-])NCC1CCCO1 (centres undefined)          >         44.7
46  COc1ccccc1OCC(O)CN1CCOCC1 (centres undefined)          =         37.4
47  COc1ccccc1C(=O)OC1CCCN(C)C1.Cl (centres undefined)          >         42.9
48  CC(NC(=O)Cc1ccsc1)c1ccc(F)cc1 (centres undefined)          >         39.5
49  CC(CCc1ccccc1)NC(=O)CSc1ccccn1 (centres undefined)          =         34.6
